Assay: self-splicing fitness, log relative to wild type (ln ratio); higher = more splicing; Tetrahymena group I intron in knt gene, E. coli kanamycin selection, DiMSum; sequences stand for … in CUCUCU…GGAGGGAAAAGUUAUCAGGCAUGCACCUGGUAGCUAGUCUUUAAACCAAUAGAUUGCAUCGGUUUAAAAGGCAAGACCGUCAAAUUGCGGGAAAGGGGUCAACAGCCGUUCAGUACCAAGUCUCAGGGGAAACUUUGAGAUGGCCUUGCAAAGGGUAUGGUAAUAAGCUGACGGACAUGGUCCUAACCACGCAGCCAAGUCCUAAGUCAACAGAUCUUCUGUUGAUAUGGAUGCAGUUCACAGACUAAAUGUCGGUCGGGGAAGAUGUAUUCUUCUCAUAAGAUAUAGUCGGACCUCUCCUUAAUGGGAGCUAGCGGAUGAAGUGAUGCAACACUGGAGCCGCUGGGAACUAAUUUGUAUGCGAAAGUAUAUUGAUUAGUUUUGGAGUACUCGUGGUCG;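 also: selection with 25 µg/mL kanamycin versus none on LB agar overnight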
Details: 30 °C
Attribute Measured: self-splicing fitness (ln)

Below: 8 sequences and their reported self-splicing fitness (ln).
GUAUAGCAAUAUUACGGAUG; -2.65
GCUGAGCAAUAUUACGAUAU; -2.62
GAUCAGCAAUAUUACGGAUC; -2.99
CUCUAGCAAUAUUACGAAGU; -3.44
UAUGAGCAAUAUUACGGCGG; -3.22
ACGCAGCAAUAUUACGUGCG; -3.58
CCUCAGCAAUAUUACGUCUA; -3.41
AUAUAGCAAUAUUACGCCGU; -0.99

# return self-splicing fitness (ln) for each item in the list
1. AACCAGCAAUAUUACGUCCG
2. CUGCAGCAAUAUUACGGGAG
3. AUCGAGCAAUAUUACGGGCC
4. ACGGAGCAAUAUUACGGGCG
5. UUCCAGCAAUAUUACGCAGA

Outgoing:
-1.56
-2.74
-1.92
-2.12
-2.09

* * *

Assay: self-splicing fitness, log relative to wild type (ln ratio); higher = more splicing; Tetrahymena group I intron in knt gene, E. coli kanamycin selection, DiMSum; sequences stand for … in CUCUCU…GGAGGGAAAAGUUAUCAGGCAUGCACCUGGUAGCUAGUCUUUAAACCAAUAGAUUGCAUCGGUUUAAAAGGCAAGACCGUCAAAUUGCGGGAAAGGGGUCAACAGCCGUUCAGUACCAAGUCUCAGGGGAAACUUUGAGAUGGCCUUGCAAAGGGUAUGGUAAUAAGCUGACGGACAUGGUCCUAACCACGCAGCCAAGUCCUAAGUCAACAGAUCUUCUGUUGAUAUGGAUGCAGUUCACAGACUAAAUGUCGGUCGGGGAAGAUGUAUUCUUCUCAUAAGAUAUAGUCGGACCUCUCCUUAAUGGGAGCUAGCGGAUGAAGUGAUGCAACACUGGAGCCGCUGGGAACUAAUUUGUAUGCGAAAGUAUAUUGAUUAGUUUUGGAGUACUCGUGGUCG
Conditions: 37 °C
Classification field: enter Yes for self-splicing fitness (ln) values not below -2, No for values below it.

Examples from the recorded data:
CACCAGCAAUAUUACGCAGG; Yes
CGGUAGCAAUAUUACGUGCG; Yes
UACCAGCAAUAUUACGGUGC; No

Incoming: Quick check, self-splicing fitness (ln) >= -2? UGCGAGCAAUAUUACGUCUG
Outgoing: Yes

Incoming: Quick check, self-splicing fitness (ln) >= -2? CUUAAGCAAUAUUACGUCAG
Outgoing: Yes

Incoming: Quick check, self-splicing fitness (ln) >= -2? ACUUAGCAAUAUUACGCAUC
Outgoing: Yes

Incoming: Quick check, self-splicing fitness (ln) >= -2? CAACAGCAAUAUUACGAUCC
Outgoing: Yes
